Test system: 134 cancer cell lines
assay_remarks: Cell viability assay (ATPlite, 72 hours), IC50 on cancer cell line panel
recorded_conditions: Homo sapiens, BT-474, read-out: IC50 in cell proliferation assay, cell line BT-474 (ERBB2 amplification)
I'd appreciate it if you could supply pIC50 values for the items below.
Please report pIC50 as the negative decimal logarithm of the molar concentration, giving only the number.

Incoming: Return pIC50 for the following molecule: Cc1cc(Nc2ncc(Cl)c(Nc3ccccc3S(=O)(=O)C(C)C)n2)c(OC(C)C)cc1C1CCNCC1
Outgoing: 5.49

Incoming: Report measured pIC50; entry is O=C(c1ccc(F)c(F)c1Nc1ccc(I)cc1F)N1CC(O)([C@@H]2CCCCN2)C1
Outgoing: 5.22

Incoming: Provide measured pIC50 value, entry: Cc1cc(Nc2ncnc3ccc(NC4=NC(C)(C)CO4)cc23)ccc1Oc1ccn2ncnc2c1
Outgoing: 7.54

* * *

assayed_system: panel of 255 wild-type kinases (Homo sapiens)
assay_remarks: Kinase panel profiling at 1 µmol/L (MSA or IMAP), percentage inhibition
Assay type: biochemical
recorded_conditions: NuaK1; 1 µmol/L single concentration; read-out: %-inhibition, NuaK1
Kindly state inhibition at 1 µM for each of the entries shown.
Answer format: numeric, % implied, no suffix.

Incoming: Supply recorded inhibition at 1 µM for C=CC(=O)N1CCC([C@@H]2CCNc3c(C(N)=O)c(-c4ccc(Oc5ccccc5)cc4)nn32)CC1 [zanubrutinib] here.
Outgoing: -7

Incoming: Give a short answer stating reported inhibition at 1 µM for COc1cc2ncnc(Nc3ccc(F)c(Cl)c3)c2cc1NC(=O)/C=C/CN1CCCCC1 [dacomitinib] .
Outgoing: 11

Incoming: Fill in reported inhibition at 1 µM for this entry: O=C(Nc1cnn2ccc(N3CCC[C@@H]3c3cc(F)ccc3F)nc12)N1CC[C@H](O)C1 [larotrectinib]
Outgoing: 13

* * *

assayed_system: panel of 255 wild-type kinases (Homo sapiens)
assay_remarks: Kinase panel profiling at 1 µmol/L (MSA or IMAP), percentage inhibition
Assay type: biochemical
recorded_conditions: kinase SLK; 1 µmol/L single concentration; read-out: %-inhibition at 1 µmol/L, SLK
Please go through the items and note down their inhibition at 1 µM.

Incoming: Write down inhibition at 1 µM measured for item C[C@H](Nc1ncnc2nc[nH]c12)c1cc2cccc(Cl)c2c(=O)n1-c1ccccc1
Outgoing: 7.44%

Incoming: Give a short answer stating reported inhibition at 1 µM for COC(=O)N[C@@H](C)CNc1nccc(-c2cn(C(C)C)nc2-c2cc(Cl)cc(NS(C)(=O)=O)c2F)n1 .
Outgoing: 6%

Incoming: Return inhibition at 1 µM (reported value) for this compound: CO[C@]1(C(=O)N[C@@H](C)c2ccc(-n3cc(F)cn3)nc2)CC[C@H](c2nc(C)cc(Nc3cc(C)[nH]n3)n2)CC1
Outgoing: 17%

Incoming: Tell me its inhibition at 1 µM given Cn1cc(-c2cc3c(N4CCN(c5ncc([C@@](C)(N)c6ccc(F)cc6)cn5)CC4)ncnn3c2)cn1 as the entry.
Outgoing: 36%

Incoming: Read the entry C[C@H]1Oc2cc(cnc2N)-c2c(nn(C)c2C#N)CN(C)C(=O)c2ccc(F)cc21 and write its reported inhibition at 1 µM.
Outgoing: 90%

Incoming: Provide inhibition at 1 µM value for the following compound: CCN1CCN(c2ccc(Nc3cc(N(C)C(=O)Nc4c(Cl)c(OC)cc(OC)c4Cl)ncn3)cc2)CC1
Outgoing: 16%

Incoming: Tell me its inhibition at 1 µM given O=C(Nc1cnn2ccc(N3CCC[C@@H]3c3cc(F)ccc3F)nc12)N1CC[C@H](O)C1 as the entry.
Outgoing: 5.58%

Incoming: Name the recorded inhibition at 1 µM of the compound listed here: CCn1c(=O)c(-c2cc(NC(=O)Nc3ccccc3)c(F)cc2Br)cc2cnc(NC)cc21
Outgoing: 18%

Incoming: State its inhibition at 1 µM: FC(F)(F)c1ccc(CNc2ccc(Cc3c[nH]c4ncc(Cl)cc34)cn2)cn1
Outgoing: 11%

Incoming: Check the records and state inhibition at 1 µM for CN1CCN(c2ccc(C(=O)Nc3n[nH]c4ccc(Cc5cc(F)cc(F)c5)cc34)c(NC3CCOCC3)c2)CC1
Outgoing: 63%

Incoming: For the compound Cc1nc(NC(=O)N2CCC[C@H]2C(N)=O)sc1-c1ccnc(C(C)(C)C(F)(F)F)c1 , give its reported inhibition at 1 µM.
Outgoing: 8%

Incoming: For the compound COc1ccc(CN2C3CC2CN(c2ccc(-c4cc(OCC(C)(C)O)cn5ncc(C#N)c45)cn2)C3)cn1 , give its reported inhibition at 1 µM.
Outgoing: 14%

Incoming: Output inhibition at 1 µM of Cn1cnc2c(F)c(Nc3ccc(Br)cc3F)c(C(=O)NOCCO)cc21
Outgoing: 3.27%

Incoming: Please report inhibition at 1 µM for the following compound: COc1cc2ncnc(Nc3ccc(F)c(Cl)c3)c2cc1NC(=O)/C=C/CN1CCCCC1
Outgoing: 78%

Incoming: Look up and report measured inhibition at 1 µM for this entry: CCN1C(=O)N(c2c(F)c(OC)cc(OC)c2F)Cc2cnc3[nH]c(CN4CCOCC4)cc3c21
Outgoing: 0.681%

Incoming: Specify measured inhibition at 1 µM for Cn1cnc2c(F)c(Nc3ccc(Br)cc3Cl)c(C(=O)NOCCO)cc21 .
Outgoing: 8%

Incoming: State, in one line, measured inhibition at 1 µM of CCc1nc(C(N)=O)c(Nc2ccc(N3CCC(N4CCN(C)CC4)CC3)c(OC)c2)nc1NC1CCOCC1
Outgoing: 99%

Incoming: # return recorded inhibition at 1 µM for entry C=CC(=O)N1CCC([C@@H]2CCNc3c(C(N)=O)c(-c4ccc(Oc5ccccc5)cc4)nn32)CC1
Outgoing: 2.36%

Incoming: Return inhibition at 1 µM (reported value) for this compound: Cc1cc(Nc2ncnc3ccc(NC4=NC(C)(C)CO4)cc23)ccc1Oc1ccn2ncnc2c1
Outgoing: 11%

* * *

System: 134 cancer cell lines
assay_remarks: Cell viability assay (ATPlite, 72 hours), IC50 on cancer cell line panel
recorded_conditions: Homo sapiens, AN3-CA, read-out: IC50 in cell proliferation assay
pIC50: −log10 of the molar value.
metric: pIC50

Incoming: Identify measured pIC50 corresponding to CC#CC(=O)N1CCC[C@H]1c1nc(-c2ccc(C(=O)Nc3ccccn3)cc2)c2c(N)nccn12
Outgoing: < 4.50

* * *

assayed_system: panel of 255 wild-type kinases (Homo sapiens, UniProt Q9HBH9)
Sequence (Q9HBH9 whole entry): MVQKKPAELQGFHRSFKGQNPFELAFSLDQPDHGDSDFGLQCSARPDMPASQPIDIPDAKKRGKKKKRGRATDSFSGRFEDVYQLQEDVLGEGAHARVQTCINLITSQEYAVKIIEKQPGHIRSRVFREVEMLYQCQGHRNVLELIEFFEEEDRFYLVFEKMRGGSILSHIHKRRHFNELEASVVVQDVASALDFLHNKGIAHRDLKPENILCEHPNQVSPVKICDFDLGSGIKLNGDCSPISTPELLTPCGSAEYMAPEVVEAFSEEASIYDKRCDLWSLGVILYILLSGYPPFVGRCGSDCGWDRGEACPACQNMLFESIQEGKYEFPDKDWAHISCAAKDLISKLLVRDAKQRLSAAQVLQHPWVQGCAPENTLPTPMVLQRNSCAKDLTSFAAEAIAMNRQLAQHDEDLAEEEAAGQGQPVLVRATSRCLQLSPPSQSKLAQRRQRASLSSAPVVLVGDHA
assay_remarks: Kinase panel profiling at 1 µmol/L (MSA or IMAP), percentage inhibition
Format: biochemical
recorded_conditions: MNK2; 1 µmol/L single concentration; read-out: %-inhibition, MNK2
Hi there, I'd appreciate the recorded inhibition at 1 µM for every entry that follows.
Answer in %, number only, no unit symbol.

Incoming: State its inhibition at 1 µM: O=C(Nc1cnn2ccc(N3CCC[C@@H]3c3cc(F)ccc3F)nc12)N1CC[C@H](O)C1 [larotrectinib]
Outgoing: -8.51

Incoming: Write down inhibition at 1 µM measured for item COc1ccc(CN2C3CC2CN(c2ccc(-c4cc(OCC(C)(C)O)cn5ncc(C#N)c45)cn2)C3)cn1 [selpercatinib]
Outgoing: 37

Incoming: Tell me measured inhibition at 1 µM for Cn1cnc2c(F)c(Nc3ccc(Br)cc3F)c(C(=O)NOCCO)cc21 [binimetinib] please.
Outgoing: -13

Incoming: Supply measured inhibition at 1 µM of CCN1CCN(c2ccc(Nc3cc(N(C)C(=O)Nc4c(Cl)c(OC)cc(OC)c4Cl)ncn3)cc2)CC1 [infigratinib] in your reply.
Outgoing: -1.83

* * *

assayed_system: panel of 255 wild-type kinases (Homo sapiens, UniProt O14965)
Sequence (O14965 whole entry): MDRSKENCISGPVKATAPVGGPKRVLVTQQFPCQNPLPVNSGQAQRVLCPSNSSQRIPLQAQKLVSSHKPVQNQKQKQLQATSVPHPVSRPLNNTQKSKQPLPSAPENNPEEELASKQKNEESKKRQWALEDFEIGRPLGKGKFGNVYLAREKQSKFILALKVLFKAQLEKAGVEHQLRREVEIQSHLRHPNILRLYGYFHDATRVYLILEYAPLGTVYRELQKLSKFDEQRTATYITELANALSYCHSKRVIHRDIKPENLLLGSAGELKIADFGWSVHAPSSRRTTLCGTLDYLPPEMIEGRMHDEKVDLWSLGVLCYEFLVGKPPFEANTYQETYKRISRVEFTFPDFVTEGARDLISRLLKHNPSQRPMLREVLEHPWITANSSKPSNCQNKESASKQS
assay_remarks: Kinase panel profiling at 1 µmol/L (MSA or IMAP), percentage inhibition
Assay type: biochemical
recorded_conditions: AurA/TPX2 kinase assay; 1 µmol/L single concentration; read-out: %-inhibition AurA/TPX2
Hi there, I'd appreciate the recorded inhibition at 1 µM for every entry that follows.

Incoming: Report inhibition at 1 µM, nothing else, for this molecule: CCn1c(=O)c(-c2cc(NC(=O)Nc3ccccc3)c(F)cc2Br)cc2cnc(NC)cc21
Outgoing: -0.807%

Incoming: Supply measured inhibition at 1 µM of FC(F)(F)c1ccc(CNc2ccc(Cc3c[nH]c4ncc(Cl)cc34)cn2)cn1 in your reply.
Outgoing: 21%

Incoming: Tell me its inhibition at 1 µM given CO[C@]1(C(=O)N[C@@H](C)c2ccc(-n3cc(F)cn3)nc2)CC[C@H](c2nc(C)cc(Nc3cc(C)[nH]n3)n2)CC1 as the entry.
Outgoing: 70%

Incoming: Return reported inhibition at 1 µM. Input molecule: O=C(Nc1cnn2ccc(N3CCC[C@@H]3c3cc(F)ccc3F)nc12)N1CC[C@H](O)C1
Outgoing: -3%

Incoming: Let me know recorded inhibition at 1 µM for Cc1cc(Nc2ncnc3ccc(NC4=NC(C)(C)CO4)cc23)ccc1Oc1ccn2ncnc2c1 , thanks.
Outgoing: -9%

Incoming: Return inhibition at 1 µM (reported value) for this molecule: COc1ccc(CN2C3CC2CN(c2ccc(-c4cc(OCC(C)(C)O)cn5ncc(C#N)c45)cn2)C3)cn1
Outgoing: 71%

Incoming: Determine from records and report inhibition at 1 µM for Cn1cc(-c2cc3c(N4CCN(c5ncc([C@@](C)(N)c6ccc(F)cc6)cn5)CC4)ncnn3c2)cn1
Outgoing: 10%

Incoming: Report inhibition at 1 µM for CCN1C(=O)N(c2c(F)c(OC)cc(OC)c2F)Cc2cnc3[nH]c(CN4CCOCC4)cc3c21
Outgoing: -4.43%

Incoming: Return inhibition at 1 µM (reported value) for this molecule: C[C@H](Nc1ncnc2nc[nH]c12)c1cc2cccc(Cl)c2c(=O)n1-c1ccccc1
Outgoing: 1.81%

Incoming: Report measured inhibition at 1 µM; entry is Cc1nc(NC(=O)N2CCC[C@H]2C(N)=O)sc1-c1ccnc(C(C)(C)C(F)(F)F)c1
Outgoing: -0.57%

Incoming: Using the record for C[C@H]1Oc2cc(cnc2N)-c2c(nn(C)c2C#N)CN(C)C(=O)c2ccc(F)cc21 , state its measured inhibition at 1 µM.
Outgoing: 29%

Incoming: Give reported inhibition at 1 µM value for COC(=O)N[C@@H](C)CNc1nccc(-c2cn(C(C)C)nc2-c2cc(Cl)cc(NS(C)(=O)=O)c2F)n1
Outgoing: -3.31%

Incoming: Query inhibition at 1 µM for Cn1cnc2c(F)c(Nc3ccc(Br)cc3F)c(C(=O)NOCCO)cc21
Outgoing: -4%

Incoming: Give recorded inhibition at 1 µM. Cn1cnc2c(F)c(Nc3ccc(Br)cc3Cl)c(C(=O)NOCCO)cc21
Outgoing: -8%

Incoming: Supply measured inhibition at 1 µM of CCc1nc(C(N)=O)c(Nc2ccc(N3CCC(N4CCN(C)CC4)CC3)c(OC)c2)nc1NC1CCOCC1 in your reply.
Outgoing: 71%

Incoming: Note down inhibition at 1 µM recorded for C=CC(=O)N1CCC([C@@H]2CCNc3c(C(N)=O)c(-c4ccc(Oc5ccccc5)cc4)nn32)CC1
Outgoing: -0.885%

Incoming: Recall and state the measured inhibition at 1 µM for COc1cc2ncnc(Nc3ccc(F)c(Cl)c3)c2cc1NC(=O)/C=C/CN1CCCCC1 .
Outgoing: 1%

Incoming: Could you please provide reported inhibition at 1 µM for CN1CCN(c2ccc(C(=O)Nc3n[nH]c4ccc(Cc5cc(F)cc(F)c5)cc34)c(NC3CCOCC3)c2)CC1 ? Thanks!
Outgoing: 75%

Incoming: Determine its reported inhibition at 1 µM: CCN1CCN(c2ccc(Nc3cc(N(C)C(=O)Nc4c(Cl)c(OC)cc(OC)c4Cl)ncn3)cc2)CC1
Outgoing: -10%
